# target-of-assay: human recombinant prostanoid TP receptor (Homo sapiens, UniProt P21731)
# Construct: expressed in transfected cells
# Sequence (P21731 whole entry): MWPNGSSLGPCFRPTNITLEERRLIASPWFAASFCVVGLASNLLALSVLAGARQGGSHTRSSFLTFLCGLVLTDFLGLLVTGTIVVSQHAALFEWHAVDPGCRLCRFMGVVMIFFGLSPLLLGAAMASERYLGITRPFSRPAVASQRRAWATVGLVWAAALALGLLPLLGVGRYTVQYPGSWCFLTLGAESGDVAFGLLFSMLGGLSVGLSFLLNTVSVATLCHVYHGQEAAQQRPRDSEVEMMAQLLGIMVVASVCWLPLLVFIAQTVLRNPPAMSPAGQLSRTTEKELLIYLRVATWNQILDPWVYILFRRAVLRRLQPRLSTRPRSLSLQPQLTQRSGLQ
# run-description: FLIPR Ca2+ signaling, PG antagonist activity, TP
# Assay type: cell-based
# protocol-conditions: antagonism of standard agonist U-46619, HEK-293 EBNA stable cells
I'd be grateful if you could share measured Kb for these entries.

Batch: Kb for all items listed.
1. Cc1c(C(=O)O)cnn1Cc1cc(Cl)ccc1OCC1CCCC1
2. Cc1c(C(=O)O)cnn1Cc1cc(Br)ccc1OCC(C)(C)C

40 nM
20 nM

---

# target-of-assay: human recombinant prostanoid EP4 receptor (Homo sapiens, UniProt P35408)
# Construct: expressed in transfected cells; co-transfected with chimeric Gqs-HA
# Sequence (P35408 whole entry): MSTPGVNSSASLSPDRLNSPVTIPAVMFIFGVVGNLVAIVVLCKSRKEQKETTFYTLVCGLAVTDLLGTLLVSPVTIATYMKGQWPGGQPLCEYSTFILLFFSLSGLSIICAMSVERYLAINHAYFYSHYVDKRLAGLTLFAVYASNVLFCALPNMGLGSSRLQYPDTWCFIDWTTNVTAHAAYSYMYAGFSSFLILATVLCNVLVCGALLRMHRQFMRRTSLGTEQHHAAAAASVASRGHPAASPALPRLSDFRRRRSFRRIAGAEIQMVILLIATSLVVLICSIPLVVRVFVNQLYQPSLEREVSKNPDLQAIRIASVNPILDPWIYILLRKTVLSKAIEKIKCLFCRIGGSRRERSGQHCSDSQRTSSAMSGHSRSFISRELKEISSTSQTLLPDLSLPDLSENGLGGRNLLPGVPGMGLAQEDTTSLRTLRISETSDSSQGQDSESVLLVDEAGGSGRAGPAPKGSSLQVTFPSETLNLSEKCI
# run-description: FLIPR Ca2+ signaling, PG antagonist activity, EP4
# Assay type: cell-based
# protocol-conditions: antagonism of standard agonist PGE2, HEK-293 EBNA stable cells with chimeric Gqs
I'd be grateful if you could share measured log10 Kb for these entries.
// stored as log10 of Kb expressed in nM

Batch: log10 Kb for all items listed.
1. CCC(CC)COc1ccc(Br)cc1Cn1ncc(C(=O)O)c1C [Example 2]
2. CCCc1c(C(=O)O)cnn1Cc1cc(Cl)ccc1OCC(CC)CC [Example 7]
3. Cc1c(C(=O)O)cnn1Cc1cc(Br)ccc1OCC(C)(C)C [Example 14]
4. CCC(CC)COc1ccc(Br)cc1Cn1ncc(CC(=O)O)c1C [Example 1]
5. CCC(CC)COc1ccc(Cl)cc1Cn1ncc(C(=O)O)c1C [Example 10]

2.58
3.52
3.11
2.00
2.70

Batch: log10 Kb for all items listed.
1. Cc1c(C(=O)O)cnn1Cc1cc(Cl)ccc1OCC1CCCC1 [Example 12]
2. Cc1c(C(=O)O)cnn1Cc1cc(Br)ccc1OCC(C)C [Example 13]
3. CCC(CC)COc1ccc(Cl)cc1Cn1cc(C(=O)O)cn1 [Example 4]
4. CCC(CC)COc1ccc(OC(F)(F)F)cc1Cn1ncc(C(=O)O)c1C [Example 15]

2.78
3.32
3.68
3.18
